ASSAYED_TARGET: T1, C-X-C chemokine receptor type 4 (CXCR4) (human (endogenous in SupT1)), P61073
T1 chain: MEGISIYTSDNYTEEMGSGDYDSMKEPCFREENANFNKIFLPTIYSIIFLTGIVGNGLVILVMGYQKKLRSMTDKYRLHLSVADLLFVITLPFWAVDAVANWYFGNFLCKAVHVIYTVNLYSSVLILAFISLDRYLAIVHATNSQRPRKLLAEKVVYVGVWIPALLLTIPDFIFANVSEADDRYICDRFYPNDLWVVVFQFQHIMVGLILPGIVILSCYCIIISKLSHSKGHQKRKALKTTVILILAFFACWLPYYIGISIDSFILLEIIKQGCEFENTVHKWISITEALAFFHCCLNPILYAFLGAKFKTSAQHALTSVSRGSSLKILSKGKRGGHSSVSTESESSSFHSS
ASSAY_PROCEDURE: flow cytometry on cells; competition with APC-labelled anti-CXCR4 antibody 12G5 (0.245 nM final) on SupT1 cells (5000 cells per well for Ki, or 50,000); compounds in PBS, antibody in PBS with 1% FCS; 2 h at 4 °C in the dark; Ki calculated from IC50 by the Cheng-Prusoff transformation with the Kd of 12G5 (151.5 pM)
pKi: −log10 of the molar value.

# BINDER, pKi
rows = [
    ("IVRWSKKVPCVS (modifications not checked) [EPI-X4 WSC02]", 6.95),
]
